Each entry below carries its reported EC50.
# TARGET_SYSTEM: Metabotropic glutamate receptor 4 (Homo sapiens)
# ASSAY_PROTOCOL: mGlu4 positive allosteric modulator potency, dose response, selectivity assay for mGlu7/mGlu8 PAM project, CHO Gqi5 cells, Fluo-4 calcium (AID 743423)
# SETTINGS: Fluo-4 calcium fluorescence

Some solved entries appear below for comparison.
>>> recorded_value("CC(=O)Nc1ccc(OCC(=O)c2cc(C)n(-c3ccc(OC(F)F)cc3)c2C)cc1")
"10 µM"
>>> recorded_value("COC(=O)c1ccc(-n2c(C)cc(C(=O)CSc3ccc(NC(C)=O)cc3)c2C)cc1")
"3.43 µM"

Provide only the value of recorded EC50 for COC(=O)c1ccc(-n2c(C)cc(C(=O)CSCc3cccc(C)c3)c2C)cc1
10 µM

Provide only the value of recorded EC50 for COC(=O)c1ccc(-n2c(C)cc(C(=O)COc3ccc(OC(C)=O)cc3)c2C)cc1
10 µM

Provide only the value of recorded EC50 for CC(=O)Nc1ccc(SCC(=O)c2cc(C)n(-c3nc(C)cs3)c2C)cc1
10 µM

Provide only the value of recorded EC50 for CC(=O)Nc1ccc(SCC(=O)c2cc(C)n(-c3ccc(S(N)(=O)=O)cc3)c2C)cc1
10 µM

Provide only the value of recorded EC50 for CCn1c(C)cc(C(=O)CSc2ccc(NC(C)=O)cc2)c1C
10 µM

Provide only the value of recorded EC50 for COC(=O)c1ccc(-n2c(C)cc(C(=O)CSc3ccc(N(C)C(C)=O)cc3)c2C)cc1
10 µM

Provide only the value of recorded EC50 for CCOc1ccc(-n2c(C)cc(C(=O)CSc3ccc(OC)cc3)c2C)cc1
10 µM

Provide only the value of recorded EC50 for COC(=O)c1ccc(-n2c(C)cc(C(=O)COc3ccc(NC(C)=O)cc3)c2C)cc1
10 µM

Provide only the value of recorded EC50 for CC(=O)Nc1ccc(SCC(=O)c2cc(C)n(CC3COc4ccccc4O3)c2C)cc1 (configuration not stated)
2.2 µM

Provide only the value of recorded EC50 for CCOc1ccc(-n2c(C)cc(C(=O)CSCc3ccc(OC)cc3)c2C)cc1
10 µM

Provide only the value of recorded EC50 for CC(=O)Nc1ccc(SCC(=O)c2cc(C)n(-c3cccc(F)c3)c2C)cc1
3.3 µM

Provide only the value of recorded EC50 for COc1ccc(SCC(=O)c2cc(C)n(-c3ccc(OC(F)F)cc3)c2C)cc1
10 µM

Provide only the value of recorded EC50 for CC(=O)Nc1ccc(SCC(=O)c2cc(C)n(CCc3cccs3)c2C)cc1
2.6 µM

Provide only the value of recorded EC50 for COC(=O)c1ccc(-n2c(C)cc(C(=O)CSCc3ccc(OC)cc3)c2C)cc1
1 µM

Provide only the value of recorded EC50 for CC(=O)Nc1ccc(SCC(=O)c2cc(C)n(CC3CCCO3)c2C)cc1 (configuration not stated)
10 µM
